- Tested on: ABL1-phosphorylated
- Experimental context: concentration: 1 μM, replicates: in singlicate; n = 1;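 further: KINOMEscan kinase panel screen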
Output satisfied for %Inh not less than 20%; output not satisfied otherwise.

INSERT INTO assay_data (compound, group_label) VALUES
  ('COc1cccc(C2=C(Nc3ccc(Cl)c(C(=O)O)c3)C(=O)NC2=O)c1 [SB-390769]', 'satisfied'),
  ('Fc1ccc(-c2ncn(C3CCNCC3)c2-c2ccnc(Oc3ccc(-c4ccccc4)cc3)n2)cc1 [SB-245391]', 'not satisfied'),
  ('O=C(Nc1ccccc1F)NC1CCN(c2ccnc(Nc3ccc(F)cc3)n2)CC1 [GSK1379800]', 'not satisfied'),
  ('Cc1ccc(S(=O)(=O)Nc2ccc(Nc3nccc(Nc4cccc5[nH]ncc45)n3)cc2)cc1 [GSK581271]', 'satisfied');

Consider now this further compound.
Hello, I need to know if Clc1ccc(-c2nn3ncccc3c2-c2ccnc(Nc3ccc4c(c3)OCCO4)n2)cc1 [GW829116] has measured %Inh not below 20%. Thanks!
not satisfied

###

Reported values of %Inh for individual entries
- Tested on: FYN
- Experimental context: concentration: 1 μM, replicates: in singlicate; n = 1
Express it in %; write the number only.

INSERT INTO results (chemical_smiles, uom, measured_value) VALUES
  ('Cc1ccc(F)c(C(=O)Nc2cccc(-c3nn4ccccc4c3-c3ccnc(Nc4cccc(F)c4)n3)c2)c1F', '%', 58),
  ('COc1ccc(-c2coc3ccc(-c4nnc(SCc5ccc(OC)c(C(F)(F)F)c5)o4)cc23)cc1', '%', 3),
  ('O=C(Nc1cccc(-c2nn3ccccc3c2-c2ccnc(Nc3cccc(F)c3)n2)c1)c1c(F)ccc(F)c1Cl', '%', 66);

Item O=C(Nc1cccc(Oc2ccc3nc(NC(=O)C4CC4)cn3n2)c1)c1ccccc1C(F)(F)F with FYN - %Inh?
33

Next entry: COc1cc2c(cc1OCCN1CCNCC1)ncc1c3ccc(C#N)cc3[nH]c21
3

Next entry: CCCCc1nn2ncccc2c1-c1ccnc(Nc2ccc(N3CCN(C)CC3)cc2)n1
58

Next entry: COc1cccc(C2=C(Nc3ccc(Cl)c(C(=O)O)c3)C(=O)NC2=O)c1
17

Next entry: c1ccc(-c2cnc3nccnn23)cc1
50

###

- System: MAP3K4
- Experimental context: concentration: 1 μM, replicates: in singlicate; n = 1
Experimental endpoint: %Inh (%)
Express it in %; write the number only.

INSERT INTO measurements (molecule, experimental_endpoint, measured_value) VALUES
  ('O=C(Nc1cccc(-c2nn3ccccc3c2-c2ccnc(Nc3cccc(F)c3)n2)c1)c1c(F)ccc(F)c1Cl [GSK357952]', '%Inh', 24),
  ('Cl.Cl.NCC(NC(=O)c1cc(-c2ccccc2)c(-c2ccnc3[nH]ccc23)s1)c1ccccc1 (stereo not shown) [GSK1321561]', '%Inh', 0),
  ('Cc1cccc(NC(=O)Nc2ccc(Oc3ncnc4ccn(C)c34)cc2)c1', '%Inh', 0);

State the recorded %Inh for this entry: CC(=O)Nc1nc2cnc(Nc3cc(NC(=O)c4cccc(C5(C#N)CC5)c4Cl)ccc3C)nc2s1
10

Next entry: CCCCc1nn2ncccc2c1-c1ccnc(Nc2ccc(N3CCN(C)CC3)cc2)n1 [GW684941]
40

Next entry: O=C(Nc1n[nH]c2nc(-c3ccc(O)cc3)ccc12)C1CC1 [SB-710363]
0

Next entry: Fc1ccc(-c2ncn(C3CCNCC3)c2-c2ccnc(Oc3ccc(-c4ccccc4)cc3)n2)cc1 [SB-245391]
14

###

Reported values of %Inh for individual entries
- Test system: IKK-alpha
- Construct: gene CHUK
- Experimental context: concentration: 1 μM, replicates: in singlicate; n = 1
Express it in %; write the number only.

Please review the entries below; each comes with its answer.
INSERT INTO assay_data (compound, target_or_test_system, experimental_endpoint, uom, measured_value) VALUES
  ('Nc1n[nH]c2cnc(-c3ccccc3)cc12', 'IKK-alpha', '%Inh', '%', 55),
  ('COc1cc(Nc2nccc(N3CCC(NC(=O)Nc4cccc(C(C)=O)c4)C3)n2)cc(OC)c1OC (stereo not drawn)', 'IKK-alpha', '%Inh', '%', 0),
  ('O=C(O)C(F)(F)F.O=C(O)C(F)(F)F.O=c1[nH]ccc2nc(N[C@@H]3CCCNC3)nc(Nc3ccc(S(=O)(=O)N4CCOCC4)cc3)c12', 'IKK-alpha', '%Inh', '%', 100),
  ('COc1ccc(-c2coc3ccc(-c4nnc(SCc5ccc(OC)c(C(F)(F)F)c5)o4)cc23)cc1', 'IKK-alpha', '%Inh', '%', 25),
  ('CNC(=O)c1ccccc1Nc1nc(Nc2ccc(N3CCOCC3)cc2)ncc1Cl.Cl', 'IKK-alpha', '%Inh', '%', 85),
  ('Cc1cccc(NC(=O)Nc2ccc(Oc3ncnc4ccn(C)c34)cc2)c1', 'IKK-alpha', '%Inh', '%', 27),
  ('Cl.Cl.NCC(C(=O)Nc1cc(Br)c(-c2ccnc3[nH]ccc23)s1)c1ccccc1 (stereo not drawn)', 'IKK-alpha', '%Inh', '%', 44),
  ('CCCCc1nn2ncccc2c1-c1ccnc(Nc2ccc(N3CCN(C)CC3)cc2)n1', 'IKK-alpha', '%Inh', '%', 41);

Switching to the query record.
State the recorded %Inh for this entry: O=C(Nc1cccc(-c2nn3ccccc3c2-c2ccnc(Nc3cccc(C(F)(F)F)c3)n2)c1)c1c(F)cccc1F
0

###

- Tested on: CLK1
- Experimental context: concentration: 1 μM, replicates: in singlicate; n = 1
Experimental endpoint: %Inh (%)
Express it in %; write the number only.

Please review the entries below; each comes with its answer.
INSERT INTO results (molecule, experimental_endpoint, uom, measured_value) VALUES
  ('Nc1ncc(-c2ccc3nccc(-c4ccncc4)c3c2)cc1S(=O)(=O)N1CCOCC1', '%Inh', '%', 63),
  ('O=C(Nc1cccc(-c2nn3ccccc3c2-c2ccnc(Nc3cccc(F)c3)n2)c1)c1c(F)ccc(F)c1Cl', '%Inh', '%', 24);

State the recorded %Inh for this entry: COc1cc(Nc2nccc(N3CCC(NC(=O)c4cc5ccccc5s4)C3)n2)cc(OC)c1OC (stereo not shown)
4

Next entry: FC(F)(F)c1ccc(/C=C/c2cncnc2Nc2ccc3[nH]c(Cc4ccccc4)nc3c2)cc1
23

###

- Tested on: PHKG1
- Experimental context: concentration: 1 μM, replicates: in singlicate; n = 1
Experimental endpoint: %Inh (%)
Express it in %; write the number only.

State the recorded %Inh for this entry: CCn1c(-c2nonc2N)nc2c(C#CC(C)(C)O)ncc(OCCCCN)c21.O=C(O)C(F)(F)F.O=C(O)C(F)(F)F
5

Next entry: COc1ccc(Nc2nccc(NCCNC(=O)c3cc4ccccc4s3)n2)cc1
0

Next entry: CCS(=O)(=O)c1ccc(OC)c(Nc2nccc(-c3c(-c4cccc(NC(=O)c5c(F)cccc5F)c4)nn4ncccc34)n2)c1
1

Next entry: COc1cc(Nc2nccc(N3CCC(NC(=O)Nc4cccc(C(C)=O)c4)C3)n2)cc(OC)c1OC (stereo not drawn)
0

Next entry: CN(C)Cc1ccc(-c2ccc3c(Nc4ccc(Oc5ccccn5)cc4)ccnc3c2)o1
2

Next entry: Cc1ccc(C(=O)Nc2ccc(Nc3ccnc4cc(-c5nccs5)ccc34)cc2O)cc1.Cl
4

Next entry: O=C(O)C(F)(F)F.O=C(O)C(F)(F)F.O=c1[nH]ccc2nc(N[C@@H]3CCCNC3)nc(Nc3ccc(S(=O)(=O)N4CCOCC4)cc3)c12
97.7

Next entry: Nc1ncnc2c1nc(-c1ccccc1)n2-c1ccccc1
17

Next entry: CC(C)c1nc(-c2cccc(NS(=O)(=O)c3c(F)cccc3F)c2F)c(-c2ccnc(Nc3ccc(N4CCOCC4)nc3)n2)s1
0

Next entry: COc1ccc(CNC(=O)NC2CCN(c3ccnc(Nc4ccc(F)cc4)n3)CC2)cc1
0

###

Reported values of %Inh for individual entries
- Test system: KIT-autoinhibited
- Experimental context: concentration: 1 μM, replicates: in singlicate; n = 1
Express it in %; write the number only.

INSERT INTO results (compound, uom, measured_value) VALUES
  ('c1ccc(-c2cnc3nccnn23)cc1 [AH20685]', '%', 0),
  ('COC(=O)Nc1nc2cc(Oc3ccc(NC(=O)Nc4cc(C(F)(F)F)ccc4F)cn3)ccc2[nH]1.Cl.Cl [GW681170]', '%', 1),
  ('COc1cccc(-c2ccc3c(NC(=O)C4CC4)n[nH]c3n2)c1 [SB-710903]', '%', 0);

State the recorded %Inh for this entry: NCCCC(NC(=O)c1cc(Br)c(-c2ccnc3[nH]ccc23)s1)c1ccccc1.O=C(O)C(F)(F)F.O=C(O)C(F)(F)F (centres unmarked) [GSK1287544]
0

Next entry: COc1cc(Nc2nccc(-c3c(-c4cccc(NC(=O)c5c(F)cccc5F)c4)nn4ncccc34)n2)cc(OC)c1OC [GSK327238]
31

Next entry: Cl.NC(=O)c1cccc(Nc2nccc(Nc3ccc(Oc4c(Cl)cccc4Cl)c(Cl)c3)n2)c1 [GW659009]
0

Next entry: CN(C)Cc1ccc(-c2ccc3c(Nc4ccc(Oc5ccccn5)cc4)ccnc3c2)o1 [GW567148]
0

Next entry: Clc1ccc(-c2nn3ncccc3c2-c2ccnc(Nc3ccc4c(c3)OCCO4)n2)cc1 [GW829116]
36
